System: human Factor XIa (Homo sapiens (Human), UniProt P03951) | Read-out: IC50
Sequence (P03951 388-625): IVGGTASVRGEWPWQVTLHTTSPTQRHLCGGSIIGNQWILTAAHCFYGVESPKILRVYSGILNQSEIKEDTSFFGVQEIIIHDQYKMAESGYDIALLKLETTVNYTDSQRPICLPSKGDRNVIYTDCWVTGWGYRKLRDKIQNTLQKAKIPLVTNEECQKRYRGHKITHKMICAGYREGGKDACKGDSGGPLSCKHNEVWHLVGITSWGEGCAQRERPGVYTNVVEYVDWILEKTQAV
Sequence (P03951 19-387 partner): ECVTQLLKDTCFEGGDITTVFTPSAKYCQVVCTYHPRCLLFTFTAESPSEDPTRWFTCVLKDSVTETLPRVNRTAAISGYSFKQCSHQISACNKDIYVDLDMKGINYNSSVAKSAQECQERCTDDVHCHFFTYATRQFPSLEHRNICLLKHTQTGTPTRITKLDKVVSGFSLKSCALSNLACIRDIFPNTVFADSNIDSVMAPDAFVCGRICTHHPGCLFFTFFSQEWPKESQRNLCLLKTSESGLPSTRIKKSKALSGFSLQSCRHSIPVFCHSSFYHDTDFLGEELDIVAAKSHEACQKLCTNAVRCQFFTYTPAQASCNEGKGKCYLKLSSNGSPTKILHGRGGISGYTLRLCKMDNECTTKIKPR

The examples below pair each entry with its known result.
molecule="COC(=O)c1ccc(NC(=O)C(CC2CCC2)c2ccc(-c3c(C(F)F)ccc(Cl)c3F)c[n+]2[O-])cc1 (single isomer, unassigned) [Example 20]" reported="> 1000 nM"
molecule="C[C@]1(O)CC[C@H](CC(C(=O)Nc2ccc(C(=O)O)cc2)c2ccc(-c3c(OC(F)F)ccc(Cl)c3F)c[n+]2[O-])CC1 (single isomer, unassigned) [Example 43]" reported="0.45 nM"
molecule="CC1CC1C[C@H](C(=O)Nc1ccc(C(=O)O)cc1)c1ccc(-c2c(OC(F)F)ccc(Cl)c2F)c[n+]1[O-] (single isomer, unassigned) [Example 53]" reported="155 nM"
molecule="CC1CCC1CC(C(=O)Nc1ccc(C(=O)O)cc1)c1ccc(-c2c(OC(F)F)ccc(Cl)c2F)c[n+]1[O-] (single isomer, unassigned) [Example 105]" reported="0.61 nM"
molecule="CC1CCC1CC(C(=O)Nc1ccc(C(=O)O)cc1)c1ccc(-c2c(OC(F)F)ccc(Cl)c2F)c[n+]1[O-] (single isomer, unassigned) [Example 106]" reported="3.79 nM"

Consider now this further molecule.
Requested read-out IC50, target or system human Factor XIa (Homo sapiens (Human), UniProt P03951), entry O=C(O)c1ccc(NC(=O)C(CC2CC2)c2ccc(-c3c(C(F)F)ccc(Cl)c3F)c[n+]2[O-])cc1F (single isomer, unassigned) [Example 117] 58.4 nM
